Values were extracted from PubChem BioAssay AID1918995.

- System: 324938-238-R-J1-PDC complex spheroid growth, % test/control
- ASSAY COMMENT: Anticancer human tumor 324938-238-R-J1-PDC patient-derived bladder carcinoma cell line growth inhibition [AhR]
- MEASUREMENT CONTEXT: curve of first compound; second compound 3.16 µM
- Source text: Multicellular complex tumor spheroid response to aryl hydrocarbon receptor antagonists in combination with a variety of drugs and investigational agents in selected tumor cell lines […] Compounds. […] If the clinical Cmax for an agent had not been determined, the highest concentration tested was 10 microM (Table 1). […]
PARAMETER MEASURED: IC50

Would you please look over these solved cases?
Prompt line: Give the reported IC50 for this molecule. O=C(c1cc(Cc2n[nH]c(=O)c3ccccc23)ccc1F)N1CCN(C(=O)C2CC2)CC1 + Cc1ccccc1N=Nc1ccc(NC(=O)c2ccnn2C)c(C)c1
Response line: > 10000 nM

Prompt line: Please report the measured IC50 for CCN(c1cc(-c2ccc(CN3CCOCC3)cc2)cc(C(=O)NCc2c(C)cc(C)[nH]c2=O)c1C)C1CCOCC1 + CC(CO)NC(=O)c1cc(-c2ccc(Cl)cc2)nn(-c2cnn(C)c2)c1=O
Response line: > 3000 nM

Prompt line: Consider the molecule CC1COCCN1c1cc(C2(S(C)(=N)=O)CC2)nc(-c2ccnc3[nH]ccc23)n1 (configuration not stated) + CC(CO)NC(=O)c1cc(-c2ccc(Cl)cc2)nn(-c2cnn(C)c2)c1=O . State its measured IC50.
Response line: 1760 nM

// switching to the query molecule
Prompt line: Let me know recorded IC50 for Nc1ccn(C2OC(CO)C(O)C2(F)F)c(=O)n1 (configuration not stated) + Cc1ccccc1N=Nc1ccc(NC(=O)c2ccnn2C)c(C)c1 , thanks.
Response line: < 31.6 nM

* * *

- Tested on: 324938-238-R-J1-PDC complex spheroid growth, % test/control
- ASSAY COMMENT: Anticancer human tumor 324938-238-R-J1-PDC cell line growth inhibition [AhR];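 note: spheroids exposed to agents for seven days before viability read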
- MEASUREMENT CONTEXT: second compound 0.1 µM; first compound 3 µM; stronger effect = lower value
One threshold, 40%, splits the recorded viability, T/C values: lower ones are Satisfied, equal or higher ones are Not satisfied.

Worked examples, 5 compounds total:
Prompt line: For CCN(c1cc(-c2ccc(CN3CCOCC3)cc2)cc(C(=O)NCc2c(C)cc(C)[nH]c2=O)c1C)C1CCOCC1 + Cc1cncc(-c2nc(NCCc3c[nH]c4ccccc34)c3ncn(C(C)C)c3n2)c1 , is the recorded viability, T/C below the cut-off of 40%?
Response line: Not satisfied

Prompt line: # TODO verify viability, T/C < 40% strictly for this compound: CCN(c1cc(-c2ccc(CN3CCOCC3)cc2)cc(C(=O)NCc2c(C)cc(C)[nH]c2=O)c1C)C1CCOCC1 + Cc1ccccc1N=Nc1ccc(NC(=O)c2ccnn2C)c(C)c1
Response line: Not satisfied

Prompt line: Item O=C(C=Cn1cnc(-c2cc(C(F)(F)F)cc(C(F)(F)F)c2)n1)NNc1cnccn1 + Cc1cncc(-c2nc(NCCc3c[nH]c4ccccc34)c3ncn(C(C)C)c3n2)c1 : viability, T/C beneath 40%, strictly?
Response line: Not satisfied

Prompt line: Please let me know if CCN(c1cc(-c2ccc(CN3CCOCC3)cc2)cc(C(=O)NCc2c(C)cc(C)[nH]c2=O)c1C)C1CCOCC1 + CC(CO)NC(=O)c1cc(-c2ccc(Cl)cc2)nn(-c2cnn(C)c2)c1=O shows viability, T/C below 40%.
Response line: Not satisfied

Prompt line: Is viability, T/C strictly under 40% for the entry O=C(C=Cn1cnc(-c2cc(C(F)(F)F)cc(C(F)(F)F)c2)n1)NNc1cnccn1 + CC(CO)NC(=O)c1cc(-c2ccc(Cl)cc2)nn(-c2cnn(C)c2)c1=O ?
Response line: Satisfied

Next up:
Prompt line: Take the compound O=C(C=Cn1cnc(-c2cc(C(F)(F)F)cc(C(F)(F)F)c2)n1)NNc1cnccn1 + Cc1ccccc1N=Nc1ccc(NC(=O)c2ccnn2C)c(C)c1 and say whether its viability, T/C is less than 40%.
Response line: Satisfied
